Tested on: amidase
Assay: Substrate specificity of the isolated amidase (hydrolysis assay)
Type: biochemical, Pseudonocardia thermophila
Settings: Aliphatic amides; 1 h at 50° C.
reported-metric: Specific activity (µmol/min/mg)
Answer format: numeric, µmol/min/mg implied, no suffix.

Value lookup for Specific activity; key = CC(C)C(N)=O [isobutyramide]
13.5

Same question, NC(=O)CCC(N)=O [succinamide] this time
4.0

Same question, NC=O [formamide] this time
9.2

Same question, NC(N)=O this time
17.5

Same question, NC(=O)CC(N)=O [malonamide] this time
7.4

Same question, C=C(C)C(N)=O [methacrylamide] this time
23.5

Same question, CCCCCC(N)=O [hexanoamide] this time
9.3

Same question, NC(=O)CCCCC(N)=O [adipamide] this time
12.0

Same question, CC(O)C(N)=O (racemic) [DL-lactamide] this time
18.9

Same question, CCC(N)=O [propionamide] this time
25.4

Same question, CC(N)=O [acetamide] this time
15.7

Same question, CC(C)(C)C(N)=O [pivalamide] this time
14.9
